Data provenance: ChEMBL document CHEMBL1155991

assay: Oral bioavailability in Sprague-Dawley rat at 3 mg/kg; type: ADME, organism-based; settings: in vivo
Parameter: bioavailability (%)

>>> recorded_value("O=C(NC1(c2ccccc2)CCC1)[C@@H]1CCC[C@H]1c1cc(-c2cccc(C(F)(F)F)n2)on1")
36
>>> recorded_value("O=C(NC1(c2ccccc2)CCC1)[C@@H]1CCC[C@H]1c1cc(-c2cccc(OC(F)(F)F)c2)on1")
46

====

assay: Plasma clearance in Sprague-Dawley rat at 1 mg/kg, iv or 3 mg/kg, po; type: ADME, organism-based
Parameter: clearance (mL/min/kg)

P: O=C(NC1(c2ccccc2)CCC1)[C@@H]1CCC[C@H]1c1cc(-c2cccc(C(F)(F)F)n2)on1
Q: O=C(NC1(c2ccccc2)CCC1)[C@@H]1CCC[C@H]1c1cc(-c2cccc(OC(F)(F)F)c2)on1
Which numeric clearance is bigger, that of P or that of Q ? Pick one and reply with its label. P

====

target: Sodium channel protein type 9 subunit alpha (Homo sapiens, UniProt Q15858); test: Inhibition of human Nav1.7 channel expressed in HEK293 cells by FRET assay; format: cell-based
Sequence (Q15858 whole entry): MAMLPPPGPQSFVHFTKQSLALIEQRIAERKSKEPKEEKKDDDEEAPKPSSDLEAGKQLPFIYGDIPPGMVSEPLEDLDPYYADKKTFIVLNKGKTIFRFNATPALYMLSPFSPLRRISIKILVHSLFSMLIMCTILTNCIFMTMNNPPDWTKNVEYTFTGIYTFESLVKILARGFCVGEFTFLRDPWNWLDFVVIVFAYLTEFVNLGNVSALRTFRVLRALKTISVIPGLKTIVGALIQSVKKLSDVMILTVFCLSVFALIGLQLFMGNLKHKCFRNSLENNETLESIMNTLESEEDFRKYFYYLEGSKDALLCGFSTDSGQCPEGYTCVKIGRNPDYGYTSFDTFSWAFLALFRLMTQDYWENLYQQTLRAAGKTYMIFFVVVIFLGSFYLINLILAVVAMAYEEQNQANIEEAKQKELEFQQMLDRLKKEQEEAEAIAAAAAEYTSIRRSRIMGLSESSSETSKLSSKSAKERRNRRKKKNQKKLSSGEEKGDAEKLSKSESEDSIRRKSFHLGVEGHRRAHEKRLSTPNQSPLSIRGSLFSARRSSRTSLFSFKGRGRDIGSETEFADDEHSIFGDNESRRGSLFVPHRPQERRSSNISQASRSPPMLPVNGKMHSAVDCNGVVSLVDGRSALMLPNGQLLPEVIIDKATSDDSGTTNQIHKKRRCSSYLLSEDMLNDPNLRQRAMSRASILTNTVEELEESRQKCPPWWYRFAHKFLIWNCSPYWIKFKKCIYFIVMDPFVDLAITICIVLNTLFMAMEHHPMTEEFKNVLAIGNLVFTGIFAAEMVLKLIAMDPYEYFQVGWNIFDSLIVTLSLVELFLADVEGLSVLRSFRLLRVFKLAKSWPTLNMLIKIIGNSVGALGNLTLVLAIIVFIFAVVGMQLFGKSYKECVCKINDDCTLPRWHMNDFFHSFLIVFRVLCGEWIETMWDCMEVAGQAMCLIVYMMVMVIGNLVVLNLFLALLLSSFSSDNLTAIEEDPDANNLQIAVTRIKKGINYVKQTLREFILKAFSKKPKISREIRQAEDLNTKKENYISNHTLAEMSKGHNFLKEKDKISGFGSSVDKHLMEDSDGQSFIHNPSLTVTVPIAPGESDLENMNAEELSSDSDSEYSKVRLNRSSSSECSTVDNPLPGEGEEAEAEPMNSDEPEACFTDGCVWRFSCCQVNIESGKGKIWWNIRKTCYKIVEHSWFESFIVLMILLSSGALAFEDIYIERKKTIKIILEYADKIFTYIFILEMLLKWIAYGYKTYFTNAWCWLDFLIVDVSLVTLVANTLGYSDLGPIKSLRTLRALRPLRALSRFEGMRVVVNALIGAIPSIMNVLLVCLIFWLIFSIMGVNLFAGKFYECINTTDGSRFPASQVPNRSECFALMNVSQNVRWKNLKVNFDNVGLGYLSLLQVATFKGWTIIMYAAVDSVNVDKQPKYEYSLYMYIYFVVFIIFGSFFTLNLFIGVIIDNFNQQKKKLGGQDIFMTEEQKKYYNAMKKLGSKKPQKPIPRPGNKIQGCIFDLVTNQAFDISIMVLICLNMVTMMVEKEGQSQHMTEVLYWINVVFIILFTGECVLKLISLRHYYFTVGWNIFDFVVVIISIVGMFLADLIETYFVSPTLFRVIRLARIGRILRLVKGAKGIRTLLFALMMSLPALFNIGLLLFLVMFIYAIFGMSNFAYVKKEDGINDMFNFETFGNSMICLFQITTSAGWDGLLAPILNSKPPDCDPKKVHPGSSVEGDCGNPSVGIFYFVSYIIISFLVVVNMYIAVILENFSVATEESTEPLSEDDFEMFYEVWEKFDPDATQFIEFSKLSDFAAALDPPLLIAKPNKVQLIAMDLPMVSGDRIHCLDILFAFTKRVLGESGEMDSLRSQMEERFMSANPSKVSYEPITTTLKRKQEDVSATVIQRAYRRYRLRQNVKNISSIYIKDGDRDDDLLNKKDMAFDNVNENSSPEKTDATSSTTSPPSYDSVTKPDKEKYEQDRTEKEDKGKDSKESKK
Parameter: IC50 (nM)

// below: answered compounds
>>> recorded_value("O=C(NC1(c2ccccc2)CC(F)C1)[C@@H]1CCC[C@H]1c1cc(-c2ccccc2)on1 (stereo in doubt; 17)")
180
>>> recorded_value("O=C(NC1(c2ccccc2)CCC1)[C@@H]1CCC[C@H]1c1cc(-c2ccc(C(F)(F)F)cc2O)on1")
300
>>> recorded_value("COc1cccc(-c2cc([C@@H]3CCC[C@H]3C(=O)NC3(c4ccccc4)CCC3)no2)c1")
20
>>> recorded_value("O=C(NC1(c2ccccc2)CCC1)[C@@H]1CCC[C@H]1c1cc(-c2cccc(C(F)(F)F)n2)on1")
220
>>> recorded_value("O=C(NC1(c2ccccc2F)CCC1)[C@@H]1CCC[C@H]1c1cc(-c2ccccc2)on1")
450

a: O=C(NC1(c2ccccc2)CCC1)[C@@H]1CCC[C@H]1c1cc(-c2cccc(OC(F)(F)F)c2)on1
b: O=C(NC1(c2cccc(F)c2)CCC1)[C@@H]1CCC[C@H]1c1cc(-c2ccccc2)on1
c: O=C(NC1(c2cccc(C(F)(F)F)c2)CCC1)[C@@H]1CCC[C@H]1c1cc(-c2ccccc2)on1
Ordering criterion: IC50; begin with the maximum. Write the labels out in the order the request specifies. c, a, b

====

target: hERG (KCNH2) (Homo sapiens, UniProt Q12809); assay: Displacement of [35S]MK-0499 from human ERG expressed in HEK293 cells at 10 uM […]; assay type: cell-based; conditions: HEK293 cells expressing human ERG, probe [35S]MK-0499
Sequence (Q12809 whole entry): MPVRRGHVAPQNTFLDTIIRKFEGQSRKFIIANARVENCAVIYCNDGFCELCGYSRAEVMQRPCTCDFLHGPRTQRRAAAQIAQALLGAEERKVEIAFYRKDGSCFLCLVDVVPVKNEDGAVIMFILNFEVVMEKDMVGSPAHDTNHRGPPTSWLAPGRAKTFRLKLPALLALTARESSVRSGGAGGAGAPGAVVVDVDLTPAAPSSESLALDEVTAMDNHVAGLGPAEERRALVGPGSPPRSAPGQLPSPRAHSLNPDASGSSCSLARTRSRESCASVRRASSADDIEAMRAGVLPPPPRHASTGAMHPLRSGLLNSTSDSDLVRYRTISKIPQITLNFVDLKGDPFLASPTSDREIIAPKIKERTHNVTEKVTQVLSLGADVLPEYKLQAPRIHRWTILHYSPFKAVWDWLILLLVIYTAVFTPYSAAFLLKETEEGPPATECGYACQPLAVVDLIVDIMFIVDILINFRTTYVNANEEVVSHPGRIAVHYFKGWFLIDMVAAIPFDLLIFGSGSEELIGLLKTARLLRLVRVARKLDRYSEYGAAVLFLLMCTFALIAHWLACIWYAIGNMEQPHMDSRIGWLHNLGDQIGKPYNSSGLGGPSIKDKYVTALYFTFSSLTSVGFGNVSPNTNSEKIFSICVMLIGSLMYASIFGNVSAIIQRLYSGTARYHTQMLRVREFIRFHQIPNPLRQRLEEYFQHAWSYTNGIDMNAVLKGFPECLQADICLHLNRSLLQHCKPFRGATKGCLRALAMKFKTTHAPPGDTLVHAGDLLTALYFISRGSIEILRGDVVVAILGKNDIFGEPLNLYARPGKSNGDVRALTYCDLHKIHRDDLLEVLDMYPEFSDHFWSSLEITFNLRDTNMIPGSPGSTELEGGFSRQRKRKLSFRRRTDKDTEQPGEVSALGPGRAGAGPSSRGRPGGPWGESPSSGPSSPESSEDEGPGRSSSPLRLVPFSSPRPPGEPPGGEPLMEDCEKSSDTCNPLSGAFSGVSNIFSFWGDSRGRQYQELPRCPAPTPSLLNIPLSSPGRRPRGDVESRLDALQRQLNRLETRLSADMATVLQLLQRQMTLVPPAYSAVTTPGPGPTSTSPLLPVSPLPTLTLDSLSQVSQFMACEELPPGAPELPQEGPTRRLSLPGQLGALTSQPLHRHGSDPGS
Parameter: inhibition at 10 µM (%)
State just the number; it will be interpreted in %.

>>> recorded_value("O=C(NC1(c2ccccc2)CC(F)C1)[C@@H]1CCC[C@H]1c1cc(-c2ccccc2)on1 (stereo in doubt; 17)")
46
>>> recorded_value("O=C(NC1(c2ccccc2)CCC1)[C@@H]1CCC[C@H]1c1cc(-c2ccccc2C(F)(F)F)on1")
91
>>> recorded_value("O=C(NC1(c2ccccc2)CCC1)[C@@H]1CCC[C@H]1c1cc(-c2ccccc2O)on1")
54
>>> recorded_value("COc1cccc(-c2cc([C@@H]3CCC[C@H]3C(=O)NC3(c4ccccc4)CCC3)no2)n1")
54

Continue with the next molecule.
What value of measured inhibition at 10 µM is listed for O=C(NC1(c2ccc(F)cc2)CCC1)[C@@H]1CCC[C@H]1c1cc(-c2ccccc2)on1 ? 81

====

target: Sodium channel protein type 9 subunit alpha (Homo sapiens, UniProt Q15858); assay: Inhibition of human Nav1.7 channel expressed in HEK293 cells by FRET assay; type: cell-based
Parameter: IC50 (nM)

>>> recorded_value("COc1ccc(-c2cc([C@@H]3CCC[C@H]3C(=O)NC3(c4ccccc4)CCC3)no2)cc1")
180
>>> recorded_value("O=C(NC1(c2ccccc2)CC1)[C@@H]1CCC[C@H]1c1cc(-c2ccccc2)on1")
440

1: O=C(NC1(c2ccccc2)CCC1)[C@@H]1CCC[C@H]1c1cc(-c2cccc(C(F)(F)F)c2O)on1 (stereo in doubt; 30a)
2: O=C(NC1(c2ccccc2)CCC1)[C@@H]1CCC[C@H]1c1cc(-c2ccc(O)cc2)on1
3: O=C(NC1(c2ccccc2)CCC1)[C@@H]1CCC[C@H]1c1cc(-c2cccc(OC(F)(F)F)c2O)on1
List the 3 entries from lowest IC50 to highest IC50 value. Write the labels out in the order the request specifies. 2, 3, 1
(2: 130 nM, 3: 260 nM, 1: 430 nM)
